Experiment: Primary qHTS to identify inhibitors of SARS-CoV-2 cell entry (AID 1645846); also: nearly all actives have a fitted effect of over 45% in size
Details: SARS-CoV-2 pseudovirus cell entry assay, luminescence; series mostly up to 57.1 µM
Results filed as inconclusive are left out. Active and inactive are the calls of the source. Calls follow the shape of the full dose curve.
Outcomes: t for active, f for inactive

compound: CN(C)c1ccc(Nc2nc(N)n(C(=O)c3c(F)cccc3F)n2)cc1
group: t

compound: CN(C(=O)C(Cl)Cl)c1ccc(OC(=O)c2ccco2)cc1
group: f

compound: O=C(O)CC(O)C(=O)O (stereo not drawn)
group: f

compound: O=C(O)COc1ccccc1
group: f

compound: O=C1C(Cl)=C(NCCN2CCOCC2)C(=O)c2ncccc21
group: t

compound: Cc1cc(SCc2sc(-c3ccc(C(F)(F)F)cc3)nc2C)ccc1OCC(=O)O
group: f

compound: O=C(c1ccc(Nc2nccc(-c3cc4ccccc4s3)n2)cc1)N1CCC(N2CCCC2)CC1
group: t

compound: OCCn1cc(-c2cnc3nnn(Cc4ccc5ncccc5c4)c3n2)cn1
group: f

compound: N#CCNC(=O)c1ccc(-c2ccnc(Nc3ccc(N4CCOCC4)cc3)n2)cc1
group: t

compound: COCCNCCCn1c(C(=O)CF)c(-c2ccc(C)cc2)c2c(N)ncnc21
group: f

compound: CC(=O)Oc1ccccc1C(=O)O
group: f

compound: N#C/C(=C1\SCC(c2ccccc2Cl)S1)n1ccnc1 (stereo not drawn)
group: f

compound: CCc1c(C)[nH]c2c1C(=O)C(CN1CCOCC1)CC2 (stereo not drawn)
group: f

compound: Cc1c(C)c2c(c(C)c1OC(=O)c1cccnc1)CC[C@@](C)(CCC[C@H](C)CCC[C@H](C)CCCC(C)C)O2
group: f

compound: COc1ncc(-c2ccc3nccc(-c4ccnnc4)c3c2)cc1NS(=O)(=O)c1ccc(F)cc1F
group: t

compound: CN(C)CC/C=C1/c2ccccc2COc2ccc(CC(=O)O)cc21
group: f

compound: C/C(=C1\CCOC(=O)S1)N(C=O)Cc1cnc(C)nc1N
group: f

compound: CCOP(=O)(OCC)C(C)NC(=O)N(CCCl)N=O (stereo not drawn)
group: f

compound: O=c1cc(CN2CCOCC2)occ1OCCCCCSc1ccnc2cc(C(F)(F)F)ccc12
group: t

compound: CC(C)CC(=O)Nc1n[nH]c2c1CN(C(=O)C1CCN(C)CC1)C2(C)C
group: t

compound: CC[N+](C)(CC)CCOC(=O)C(O)(c1ccccc1)C1CCCCC1 (stereo not drawn)
group: f

compound: CCN(CC)CCOc1ccc(Nc2ncc3cc(-c4c(Cl)cccc4Cl)c(=O)n(C)c3n2)cc1
group: t

compound: C1CCC(NC2CCCCC2)CC1
group: f

compound: O=c1cc(N2CCOCC2)oc2c(-c3cccc4c3sc3ccccc34)cccc12
group: t

compound: Clc1ccccc1CN1CCc2sccc2C1
group: f

compound: CC1(C)CCC(c2ccc(Cl)cc2)=C(CN2CCN(c3ccc(C(=O)NS(=O)(=O)c4ccc(N[C@H](CCN5CCOCC5)CSc5ccccc5)c(S(=O)(=O)C(F)(F)F)c4)cc3)CC2)C1
group: f

compound: COC(=O)c1cncn1C(C)c1ccccc1 (stereo not drawn)
group: f

compound: O=C1C=CC[C@@H]2[C@H]3CCCN4CCC[C@@H](CN12)[C@@H]34
group: f
